Assign MIC to each entry below.
# System: Bacillus cereus
# test description: Minimal inhibitory concentration against Bacillus cereus
# Type: functional
Answers are plain numbers, in µg/mL.

Here are 5 molecules together with their reported answers.
The molecule `Cc1cc2c(C)c(C)sc2cc1Nc1ccc(F)cc1` , tested on Bacillus cereus, showed MIC of 200

The molecule `Cc1cc2c(C)c(C)sc2cc1Br` , tested on Bacillus cereus, showed MIC of 1000

The molecule `Cc1cc2c(C)c(C)sc2cc1N` , tested on Bacillus cereus, showed MIC of 500

The molecule `Cc1cc2c(C)c(C)sc2cc1Nc1ccccc1` , tested on Bacillus cereus, showed MIC of 200

The molecule `Cc1cc2c(C)c(C)sc2cc1Nc1ccccc1F` , tested on Bacillus cereus, showed MIC of 200

Next:
The molecule `CC1(C)S[C@@H]2[C@H](NC(=O)[C@H](N)c3ccccc3)C(=O)N2[C@H]1C(=O)O` , tested on Bacillus cereus, showed MIC of 3.13
